# Test target: Dual specificity protein phosphatase 1 (Homo sapiens, UniProt P28562)
# Sequence (P28562 whole entry): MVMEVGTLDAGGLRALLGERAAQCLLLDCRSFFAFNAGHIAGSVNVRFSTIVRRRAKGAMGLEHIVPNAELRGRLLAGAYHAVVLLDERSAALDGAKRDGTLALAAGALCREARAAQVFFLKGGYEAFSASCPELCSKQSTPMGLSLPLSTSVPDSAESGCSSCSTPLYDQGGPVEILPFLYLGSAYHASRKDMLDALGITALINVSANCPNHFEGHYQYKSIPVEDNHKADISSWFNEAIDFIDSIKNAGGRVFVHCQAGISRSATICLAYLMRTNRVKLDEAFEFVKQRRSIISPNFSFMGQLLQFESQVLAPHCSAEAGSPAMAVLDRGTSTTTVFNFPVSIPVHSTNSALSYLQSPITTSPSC
# Measurement description: MKP-1 phosphatase inhibition under DTT, dose response, biochemical, DTT added, probe assessment (AID 558)
// IC50 lookup, one value per entry
Measured quantity: IC50

| Molecule | Test value |
| --- | --- |
| CCOc1ccc(-c2cc3nc(C4CCN(C(=O)OC(C)(C)C)CC4)c(C(=O)O)cn3n2)cc1 | 27.7 µM |
| CCOC(=O)c1ccc2c(c1)C1C=CCC1C(C(=O)O)N2 (centres undefined) | 32.7 µM |
| COc1ccc(Cn2c(C)nc3c(c2=O)c2nc4ccccc4nc2n3Cc2ccco2)cc1 | 22 µM |
| O=C(c1cccs1)c1no[n+]([O-])c1C(=O)c1cccs1 | 6.96 µM |
| Cc1cc(C)n2c(SCC(=O)N3CCN(S(=O)(=O)c4ccc(Cl)cc4)CC3)nnc2n1 | 49.9 µM |
| O=C(OC1CCCCC1)c1ccc2c(c1)C1C=CCC1C(C(=O)O)N2 (centres undefined) | 17.5 µM |
| CC(C)Sc1nc2sc3c(c2c2nnc(SCC(=O)NCc4ccco4)n12)CCCC3 | 22.7 µM |
| Cc1nc2c(C(=O)NCCC3=CCCCC3)c[nH]n2c(=O)c1Cl | 49.9 µM |
| CC(=O)[C@@H]1[C@@H]2C(=O)N(c3ccc(F)c(Cl)c3)C(=O)[C@@H]2C2c3ccccc3C=CN21 (some centres undefined) | > 50 µM |

----------
// pIC50 lookup, one value per entry
# Test target: Dual specificity protein phosphatase 1 (Homo sapiens, UniProt P28562)
# Measurement description: MKP-1 phosphatase inhibition under DTT, dose response, biochemical, DTT added, probe assessment (AID 558)
pIC50: −log10 of the molar value.

| Molecule | Test target | Modifier sign | pIC50 |
| --- | --- | --- | --- |
| N#Cc1c(NC(=O)c2ccc(Br)o2)n(-c2ccccc2)c2nc3ccccc3nc12 | Dual specificity protein phosphatase 1 (Homo sapiens, UniProt P28562) | < | 4.30 |
| [O-]/[N+](=C/c1ccc(F)cc1)c1ccccc1 | Dual specificity protein phosphatase 1 (Homo sapiens, UniProt P28562) | < | 4.30 |
| Cc1c(N=c2c(=O)c3ccccc3c2=O)c(=O)n(-c2ccccc2)n1C | Dual specificity protein phosphatase 1 (Homo sapiens, UniProt P28562) | < | 4.30 |
| O=C1Nc2ccccc2SC(c2ccccc2)C1O (stereo not drawn) | Dual specificity protein phosphatase 1 (Homo sapiens, UniProt P28562) | = | 4.45 |
| [O-]/[N+](=C\c1ccncc1)c1ccccc1 | Dual specificity protein phosphatase 1 (Homo sapiens, UniProt P28562) | = | 4.33 |
| CCn1nc(-c2cccs2)nc2c(=O)n(C)c(=O)nc1-2 | Dual specificity protein phosphatase 1 (Homo sapiens, UniProt P28562) | < | 4.30 |
| CCCCNC(=O)c1c(N)n(CCCOC)c2nc3ccccc3nc12 | Dual specificity protein phosphatase 1 (Homo sapiens, UniProt P28562) | < | 4.30 |
| N#Cc1c(N)sc(=S)c2c1CCN(Cc1ccccc1)C2 | Dual specificity protein phosphatase 1 (Homo sapiens, UniProt P28562) | < | 4.30 |
| Nc1c(N2CCCC2)cc(Cl)c2nonc12 | Dual specificity protein phosphatase 1 (Homo sapiens, UniProt P28562) | < | 4.30 |
| Cc1ccc(-c2csc(NC(=O)c3ccno3)n2)cc1 | Dual specificity protein phosphatase 1 (Homo sapiens, UniProt P28562) | = | 4.30 |
| CCCCn1c(NC(=O)c2ccccc2)c(C#N)c2nc3ccccc3nc21 | Dual specificity protein phosphatase 1 (Homo sapiens, UniProt P28562) | = | 4.49 |
| Nc1nc2c(s1)CCc1c-2cnn1-c1ccccc1 | Dual specificity protein phosphatase 1 (Homo sapiens, UniProt P28562) | < | 4.30 |
| Cc1cc(NC(=O)c2ccc(S(=O)(=O)N3CCCC3)cc2)nc2c1c(=O)oc1ccccc12 | Dual specificity protein phosphatase 1 (Homo sapiens, UniProt P28562) | = | 4.58 |
| Cc1ccc(C)n1-c1cccc(C(=O)O)c1 | Dual specificity protein phosphatase 1 (Homo sapiens, UniProt P28562) | = | 4.77 |
| O=C1C(=C2C(=O)c3ccccc3C2=O)Nc2ccccc21 | Dual specificity protein phosphatase 1 (Homo sapiens, UniProt P28562) | < | 4.30 |
| CC1=C(/C=C/C(C)=C/C=C/C(C)=C/C(=O)O)C(C)(C)CCC1 [ALL-TRANS-RETINOIC ACID] | Dual specificity protein phosphatase 1 (Homo sapiens, UniProt P28562) | = | 4.31 |
| CCOc1ccc2noc3c2c1C(=O)c1ccccc1-3 | Dual specificity protein phosphatase 1 (Homo sapiens, UniProt P28562) | = | 4.52 |
| Cc1ccc(/C=C/C2=Cc3c(sc(NC(=O)CSc4nnc(N)[nH]4)c3C#N)C(C)(C)C2)o1 | Dual specificity protein phosphatase 1 (Homo sapiens, UniProt P28562) | = | 4.70 |
